tested on: Liver microsomes; assay: Metabolic stability in human liver microsomes; type: ADME, Microsome
observed-property: Stability (%)
Answers are plain numbers, in %.

chem-smiles	Stability / %
Cc1cn2c(N3CC[C@H](N(C)C)C3)c(-c3ccccc3)c(C)c(C#N)c2n1	71
Cc1c(-c2ccccc2)c(N2CC[C@H](N(C)C)C2)n2nc(C(C)(C)COCc3ccccc3)nc2c1C#N	9
Cc1c(-c2ccccc2)c(N2CC[C@H](N(C)C)C2)n2c(nc3ccccc32)c1C#N	29
CCc1nc2c(C#N)c(C)c(-c3ccccc3)c(N3CC[C@H](N(C)C)C3)n2n1	54
Cc1c(-c2ccccc2)c(N2CC[C@H](N(C)C)C2)n2nc(C(C)(C)C)cc2c1C#N	12
Cc1nc2c(C#N)c(C)c(-c3ccccc3)c(N3CC[C@H](N(C)C)C3)n2n1	84
OC(Cn1cncn1)(Cn1cncn1)c1ccc(F)cc1F	96
CCN(CC)CCNc1c(-c2ccccc2)c(C)c(C#N)c2nc(C(C)(C)C)nn12	10

Give the measured Stability of "CCCCc1nc2c(C#N)c(C)c(-c3ccccc3)c(N3CC[C@H](N(C)C)C3)n2n1" .
5

---

system: Saccharomyces cerevisiae; assay: Antimicrobial activity against Saccharomyces cerevisiae AY14 by microdilution assay; assay type: functional
observed-property: MIC

Would you please look over these solved cases?
compound	MIC
OC(Cn1cncn1)(Cn1cncn1)c1ccc(F)cc1F [FLUCONAZOLE]	4 µg/mL
CCN(CC)CCNc1c(-c2ccccc2)c(C)c(C#N)c2nc(C(C)(C)C)nn12	0.5 µg/mL
CCCCc1c(C)c(C#N)c2nc(C(C)(C)C)nn2c1N1CC[C@H](N(C)C)C1	64 µg/mL

Provide reported MIC for each item, in the same order as listed.
1. Cc1c(-c2ccccc2)c(N2CC[C@H](N(C)C)C2)n2c(nc3ccccc32)c1C#N
2. Cc1nc2c(C#N)c(C)c(-c3ccccc3)c(N3CC[C@H](N(C)C)C3)n2n1
3. CCCCc1nc2c(C#N)c(C)c(-c3ccccc3)c(N3CC[C@H](N(C)C)C3)n2n1
4. Cc1c(-c2ccccc2)c(N2CC[C@H](N(C)C)C2)n2nc(-c3ccccc3)nc2c1C#N
5. Cc1c(-c2ccccc2)c(N2CC[C@H](N(C)C)C2)n2nc(C(C)(C)C)nc2c1C#N
6. CCCCc1c(C)c(C#N)c2nc3ccccc3n2c1N1CC[C@H](N(C)C)C1

≤ 0.125 µg/mL
8 µg/mL
2 µg/mL
> 128 µg/mL
≤ 0.125 µg/mL
0.25 µg/mL

---

assay: Octanol-phosphate buffered saline partition coefficient, log D of the compound at pH 6.8; format: physicochemical
observed-property: logD
Give bare numbers.

Would you please look over these solved cases?
chem-smiles	logD
Cc1c(-c2ccccc2)c(N2CC[C@H](N(C)C)C2)n2nc(C(C)(C)C)cc2c1C#N	4.8
Cc1c(-c2ccccc2)c(N2CC[C@H](N(C)C)C2)n2nc(C(C)(C)CO)nc2c1C#N	1.8
Cc1c(-c2ccccc2)c(N2CC[C@H](N(C)C)C2)n2nc(C3CC3)nc2c1C#N	2.4
Cc1c(-c2ccccc2)c(N2CC[C@H](N(C)C)C2)n2nc(C(C)(C)COCc3ccccc3)nc2c1C#N	3.8

Provide reported logD for each item, in the same order as listed.
1. Cc1cn2c(N3CC[C@H](N(C)C)C3)c(-c3ccccc3)c(C)c(C#N)c2n1
2. CCc1nc2c(C#N)c(C)c(-c3ccccc3)c(N3CC[C@H](N(C)C)C3)n2n1
3. Cc1c(-c2ccccc2)c(N2CC[C@H](N(C)C)C2)n2c(nc3ccccc32)c1C#N
4. Cc1c(-c2ccccc2)c(N2CC[C@H](N(C)C)C2)n2cc(C(C)(C)C)nc2c1C#N
5. CCCCc1c(C)c(C#N)c2nc3ccccc3n2c1N1CC[C@H](N(C)C)C1

1: 1.9; 2: 2.1; 3: 3.1; 4: 3; 5: 3.2
